Biological target: 5'-nucleotidase (Homo sapiens, UniProt P21589)
Sequence (P21589 whole entry, the tested form may be a part): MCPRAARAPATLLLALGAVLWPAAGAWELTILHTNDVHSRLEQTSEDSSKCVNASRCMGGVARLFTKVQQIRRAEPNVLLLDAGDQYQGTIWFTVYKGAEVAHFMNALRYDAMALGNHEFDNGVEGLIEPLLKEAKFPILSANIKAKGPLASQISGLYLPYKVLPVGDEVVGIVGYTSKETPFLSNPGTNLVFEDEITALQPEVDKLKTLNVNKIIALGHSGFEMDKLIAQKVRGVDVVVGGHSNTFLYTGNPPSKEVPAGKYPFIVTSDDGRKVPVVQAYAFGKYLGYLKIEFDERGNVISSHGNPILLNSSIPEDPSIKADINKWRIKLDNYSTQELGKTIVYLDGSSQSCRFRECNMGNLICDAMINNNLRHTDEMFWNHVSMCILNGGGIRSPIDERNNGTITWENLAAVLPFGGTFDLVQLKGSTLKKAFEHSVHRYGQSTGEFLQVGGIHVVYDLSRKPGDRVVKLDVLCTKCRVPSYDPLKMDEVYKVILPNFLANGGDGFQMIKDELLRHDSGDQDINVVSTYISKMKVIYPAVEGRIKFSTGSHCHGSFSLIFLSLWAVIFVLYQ
Experiment: Inhibition of human C-terminal 6His-tagged CD73 (1 to 547 residues) expressed in HEK293F cells using 2 uM AMP as substrate by rapidfire mass spectrometry assay
Conditions: hek293f
outcomeMeasure: IC50

The reported IC50 of the compound COc1nnc(-c2c[nH]c(=O)[nH]c2=O)cc1C1CCC(F)(F)C1 (stereo unspecified) was < 62 nM

====

Assay: Inhibition of rat NTPDase3 expressed in CHO cells using ATP as substrate incubated for 10 mins by UV absorbance method
Assay type: cell-based
Listing: Ki of selected molecules
The reply should be a number in nM, with the unit left off.

Use these answered entries as a reference point.
[
  {
    "chemicalString": "Nc1c(S(=O)(=O)[O-])cc(Nc2ccc3ccccc3c2)c2c1C(=O)c1ccccc1C2=O.[Na+]",
    "Ki / nM": 2220
  },
  {
    "chemicalString": "Nc1c(S(=O)(=O)O)cc(Nc2ccc(Nc3nc(Cl)nc(Nc4ccc(S(=O)(=O)O)c(S(=O)(=O)O)c4)n3)c(S(=O)(=O)O)c2)c2c1C(=O)c1ccccc1C2=O",
    "Ki / nM": 1100
  }
]

Now look at this one.
Recorded result, "Nc1c(S(=O)(=O)O)cc(Nc2ccc(Cl)cc2)c2c1C(=O)c1ccccc1C2=O" , Ki: 16400

====

Biological target: 5'-nucleotidase (Homo sapiens, UniProt P21589)
Experiment: Inhibition of recombinant human CD73 using AMP as substrate incubated for 120 mins by CellTiter-Glo assay
outcomeMeasure: IC50 (nM)
Response body: numeric value in nM, unit text excluded.

Field IC50 (system: 5'-nucleotidase (Homo sapiens, UniProt P21589)) for entry "Nc1ncnc2c1ncn2[C@@H]1O[C@H](COP(=O)(O)CP(=O)(O)O)[C@@H](O)[C@H]1O" = 2500

====

Molecular target: 5'-nucleotidase (Rattus norvegicus)
Sequence (P21588 whole entry): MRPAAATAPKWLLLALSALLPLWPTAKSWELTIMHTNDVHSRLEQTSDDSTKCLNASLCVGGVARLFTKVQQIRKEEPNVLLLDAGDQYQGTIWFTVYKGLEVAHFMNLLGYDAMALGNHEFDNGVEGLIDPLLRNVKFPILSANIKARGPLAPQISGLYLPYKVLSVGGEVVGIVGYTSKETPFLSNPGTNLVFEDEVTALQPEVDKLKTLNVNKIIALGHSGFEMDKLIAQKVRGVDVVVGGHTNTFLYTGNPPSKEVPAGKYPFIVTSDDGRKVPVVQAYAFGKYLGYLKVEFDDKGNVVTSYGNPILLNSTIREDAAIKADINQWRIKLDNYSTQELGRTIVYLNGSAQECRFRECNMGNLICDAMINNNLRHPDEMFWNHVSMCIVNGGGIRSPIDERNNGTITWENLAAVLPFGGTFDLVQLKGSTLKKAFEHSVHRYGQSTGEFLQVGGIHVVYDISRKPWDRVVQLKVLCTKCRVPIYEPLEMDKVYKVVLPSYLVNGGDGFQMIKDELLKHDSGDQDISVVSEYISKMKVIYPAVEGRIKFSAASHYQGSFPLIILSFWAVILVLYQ
outcomeMeasure: pKi
pKi here is simply -log10 of the concentration when that concentration is written in mol/L.

Notebook: "Nc1ncnc2c1ncn2[C@@H]1O[C@H](COP(=O)(O)CP(=O)(O)O)[C@@H](O)[C@H]1O" , pKi read as 6.06

====

Target: 5'-nucleotidase (Homo sapiens, UniProt P21589)
Assay: Inhibition of CD73 in human melanoma 1539 cells using AMP substrate by capillary electrophoresis assay
outcomeMeasure: pKi
Expect pKi as a plain number equal to -log10 of the molar concentration.

For record "Nc1ncnc2c1ncn2[C@@H]1O[C@H](COP(=O)(O)CP(=O)(O)O)[C@@H](O)[C@H]1O" the listed pKi is 6.29

====

Molecular target: 5'-nucleotidase (Homo sapiens, UniProt P21589)
Assay: Inhibition of human C-terminal His6-tagged CD73 expressed in HEK293F cells using [15N]5-AMP as substrate preincubated for 1 hr followed by substrate addition and measured after 8 mins by MS/MS assay
outcomeMeasure: IC50

Record summary for "Nc1ncnc2c1ncn2[C@@H]1O[C@H](COP(=O)(O)CP(=O)(O)O)[C@@H](O)[C@H]1O" : reported IC50 = 60 nM

====

# pIC50 per record follows
Experiment: Inhibition of human FLAG-tagged CD73 Thr376Ala mutant (1 to 552 residues) assessed as reduction in adenosine formation using AMP as substrate preincubated for 10 mins followed by substrate addition and measured after 30 mins by rapidfire mass spectrometry assay
Hey, just a heads up that pIC50 is the negative log base 10 of the concentration in molar.

[
  {
    "chemicalString": "NC(=O)c1cc2c(c(Cl)c1O)NCCOCCCCCc1cc(cc3[nH]ccc13)NS2(=O)=O",
    "dataValue": 8.40
  }
]

Value of measured pIC50 for the entry "O=S1(=O)NC(Nc2cccc3[nH]ncc23)=Nc2c1cc(Cl)c(F)c2O" : 7.82

====

Target: 5'-nucleotidase (Homo sapiens)
Assay: Inhibition of CD73 in human serum using 13C5-15N5-AMP as substrate preincubated for 60 mins followed by substrate addition and measured after 15 mins by LC/MS based assay
outcomeMeasure: EC50 (nM)
// return numeric value only (unit: nM, not printed)

Note to self: EC50 recorded for "Cc1nnc(-c2c[nH]c(=O)[nH]c2=O)cc1[C@H]1C[C@@H]1C(F)F" was 51

====

Target: Ectonucleoside triphosphate diphosphohydrolase 1 (Homo sapiens, UniProt P49961)
Experiment: Inhibition of human CD39 using ATP as substrate preincubated for 3 mins followed by substrate addition and measured after 10 to 15 mins by Cheng-Prusoff analysis
Conditions: read-out: Ki(app)
outcomeMeasure: pKi
Note on pKi: it is the negative log10 of concentration, concentration in mol/L.

The compound listed as "CCCCSc1nc2c(N)ncnc2n1[C@@H]1O[C@H](COP(=O)(O)OP(=O)(O)OP(=O)(O)O)[C@@H](O)[C@H]1O" shows pKi equal to 6.10

====

Target: Ectonucleoside triphosphate diphosphohydrolase 1 (Rattus norvegicus, UniProt P97687)
Sequence (P97687 whole entry): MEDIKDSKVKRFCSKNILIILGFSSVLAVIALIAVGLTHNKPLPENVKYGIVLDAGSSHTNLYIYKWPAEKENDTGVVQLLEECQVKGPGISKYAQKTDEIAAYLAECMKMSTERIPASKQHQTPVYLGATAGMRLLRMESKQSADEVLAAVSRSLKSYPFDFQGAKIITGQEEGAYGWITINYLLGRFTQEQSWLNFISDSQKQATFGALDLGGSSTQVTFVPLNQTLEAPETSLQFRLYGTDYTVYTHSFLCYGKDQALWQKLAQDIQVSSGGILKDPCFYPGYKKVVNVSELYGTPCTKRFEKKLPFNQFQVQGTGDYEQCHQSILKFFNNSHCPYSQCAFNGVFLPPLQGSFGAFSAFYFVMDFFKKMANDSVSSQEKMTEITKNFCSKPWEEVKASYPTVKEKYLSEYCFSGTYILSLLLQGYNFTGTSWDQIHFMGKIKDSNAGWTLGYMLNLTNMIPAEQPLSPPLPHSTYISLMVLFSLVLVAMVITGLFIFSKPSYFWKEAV
Assay: Inhibition of rat CD39 expressed in CHO cells using ATP as substrate incubated for 10 mins by UV absorbance method
Type: cell-based
Settings: cho
outcomeMeasure: pKi
# pKi: negative log10 of molar concentration; output just the value

[
  {
    "chemicalString": "Nc1c(S(=O)(=O)[O-])cc(Nc2ccc3ccccc3c2)c2c1C(=O)c1ccccc1C2=O.[Na+]",
    "pKi": 6.48
  }
]

Continue with the next molecule.
Kindly note the recorded pKi for "Nc1c(S(=O)(=O)O)cc(Nc2ccc(Cl)cc2)c2c1C(=O)c1ccccc1C2=O" , which is 4.80

====

Molecular target: Ectonucleoside triphosphate diphosphohydrolase 1 (Homo sapiens, UniProt P49961)
Sequence (P49961 whole entry): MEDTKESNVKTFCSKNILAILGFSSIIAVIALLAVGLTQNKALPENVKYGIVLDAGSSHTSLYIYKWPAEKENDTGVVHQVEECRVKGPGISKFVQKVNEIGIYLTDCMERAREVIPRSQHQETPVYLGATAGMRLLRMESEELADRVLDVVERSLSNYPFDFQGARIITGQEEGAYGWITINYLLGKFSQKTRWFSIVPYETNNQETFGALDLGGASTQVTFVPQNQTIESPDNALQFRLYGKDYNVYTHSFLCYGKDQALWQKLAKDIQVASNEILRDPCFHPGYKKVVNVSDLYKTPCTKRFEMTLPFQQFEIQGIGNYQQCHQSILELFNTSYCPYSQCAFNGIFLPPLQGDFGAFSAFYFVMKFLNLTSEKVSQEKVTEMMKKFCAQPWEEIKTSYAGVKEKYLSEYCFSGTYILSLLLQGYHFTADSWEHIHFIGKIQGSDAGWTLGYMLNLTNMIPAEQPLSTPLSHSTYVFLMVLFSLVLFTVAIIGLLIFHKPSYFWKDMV
outcomeMeasure: IC50 (µM)
Just the number please, in µM, no unit attached.

[
  {
    "chemicalString": "CCCCSc1nc2c(N)ncnc2n1[C@@H]1O[C@H](COP(=O)(O)O)[C@@H](O)[C@H]1O",
    "IC50 / µM": 35
  }
]

Lookup result for "CCCCSc1nc2c(N)ncnc2n1[C@@H]1O[C@H](COP(=O)(O)OP(=O)(O)OP(=O)(O)O)[C@@H](O)[C@H]1O" ; measured IC50: 5.6

====

Target: UniProtKB P21589
Test: Inhibition of recombinant human CD73 using AMP as substrate incubated for 90 mins by malachite green colorimetric assay
outcomeMeasure: IC50

Summary: "Nc1ncnc2c1ncn2[C@@H]1O[C@H](COP(=O)(O)CP(=O)(O)O)[C@@H](O)[C@H]1O" , UniProtKB P21589, IC50 = 1100 nM

====

Test: Half-life in human at 25 mg, iv infusion dosed once every 2 weeks
Format: ADME, organism-based
Conditions: in vivo
outcomeMeasure: half-life
State the value with its unit after it.

Data point: "C[C@H](Nc1cc(Cl)nc2c1cnn2[C@@H]1O[C@H](COP(=O)(O)CP(=O)(O)O)[C@@H](O)[C@H]1O)c1ccccc1F" ; half-life = 74 h

====

Target: Ectonucleoside triphosphate diphosphohydrolase 1 (Homo sapiens)
Sequence (P49961 whole entry): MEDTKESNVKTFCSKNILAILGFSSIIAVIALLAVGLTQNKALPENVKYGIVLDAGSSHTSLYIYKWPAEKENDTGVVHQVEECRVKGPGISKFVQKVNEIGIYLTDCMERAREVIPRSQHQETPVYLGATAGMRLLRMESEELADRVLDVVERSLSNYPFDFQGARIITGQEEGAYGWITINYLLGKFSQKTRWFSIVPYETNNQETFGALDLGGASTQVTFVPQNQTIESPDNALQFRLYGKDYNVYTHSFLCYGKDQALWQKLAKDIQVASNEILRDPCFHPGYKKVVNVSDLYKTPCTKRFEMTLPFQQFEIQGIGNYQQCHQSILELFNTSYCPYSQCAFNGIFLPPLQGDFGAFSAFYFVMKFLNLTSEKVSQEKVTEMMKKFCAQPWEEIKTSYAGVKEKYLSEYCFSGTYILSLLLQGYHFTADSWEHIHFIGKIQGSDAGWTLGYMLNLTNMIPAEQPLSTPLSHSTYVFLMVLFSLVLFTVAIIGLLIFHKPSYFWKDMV
Experiment: Inhibition of human CD39 using ATP as substrate preincubated for 3 mins followed by substrate addition and measured after 10 to 15 mins by Dixon and Cornish-Bowden plot analysis
Details: read-out: Ki(app)
outcomeMeasure: Ki (µM)
Please respond with the number in µM and leave the unit unwritten.

So for "CCCCSc1nc2c(N)ncnc2n1[C@@H]1O[C@H](COP(=O)(O)OP(=O)(O)O)[C@@H](O)[C@H]1O" , the logged Ki turned out to be 0.9
